Target: T1, 4H591-bH
T1 chain: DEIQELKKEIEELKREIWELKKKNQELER
Experiment: two-hybrid library CCNG1;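 further: natural log of median RNA to DNA barcode read ratio; higher means stronger binding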

{"binder": "DKNQELEKEIEELKRKIWELEKKNQELER [4H3175-bH]", "interaction score": -2.15}
{"binder": "DKNQELEKENEELKREIWELKKKIQELER [4H3277-bH]", "interaction score": 0.0179}
{"binder": "DENQELEKKIEELKREIWELEKENQELKR [4H1348-bH]", "interaction score": -1.39}
{"binder": "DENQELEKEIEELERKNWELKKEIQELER [4H1081-bH]", "interaction score": -0.509}
{"binder": "DKNQELEKKNEELERKIWELKKEIQELER [4H3497-bH]", "interaction score": -1.46}
